FYI, the data here is from patent US12138267B2.

test: clinical
condition_parameters: both, human, plasma, intravenous, propofol Mean AUClast, during infusion with Compound A high dose
test_readout: AUC(0-t)
The answer should read as a number with its unit following.

Query: Request the reported AUC(0-t) associated with CC(C)c1cccc(C(C)C)c1O
Reply: 6150 ng·h/mL

====

test: Pharmacokinetics of Compound A, plasma concentrations after IV infusion
Format: in vivo, human
condition_parameters: both sexes, human, plasma, intravenous, ENA-001 low dose, N 12; read-out: AUClast Geometric Mean
Protocol: Subjects underwent 3 separate treatment periods. […] PD will be unblinded for treatment but not subject. […] Participant Disposition Pharmacokinetic samples were measured up to 24 hours after the start of the IV infusion. […] Therefore, a fast decrease in concentration was observed, followed by a slow […].
test_readout: AUC(0-t) (ng·h/mL)
Numbers only, in ng·h/mL.

Query: // query AUC(0-t) value for entry CCCNc1nc(NCCC)nc(N(C)OC)n1
Reply: 2610

====

test: Pharmacokinetics of Compound A, plasma concentrations after IV infusion
Assay type: in vivo, human
condition_parameters: both sexes, human, plasma, intravenous, ENA-001 high dose, N 12; read-out: t1/2 Median (converted)
test_readout: half-life (h)
Answers are plain numbers, in h.

Query: May I ask what half-life has been recorded for CCCNc1nc(NCCC)nc(N(C)OC)n1 ?
Reply: 5.63

====

test: Pharmacokinetics of Compound A, plasma concentrations after IV infusion
Format: in vivo, human
condition_parameters: both sexes, human, plasma, intravenous, ENA-001 low dose, N 12; read-out: t1/2 Geometric Mean (converted)
test_readout: half-life (h)
Give bare numbers, in h.

Query: Reported half-life, molecule CCCNc1nc(NCCC)nc(N(C)OC)n1 : ____
Reply: 4.99

====

test: Pharmacokinetics of Compound A, plasma concentrations after IV infusion
Assay type: in vivo, human
condition_parameters: both sexes, human, plasma, intravenous, ENA-001 low dose, N 12; read-out: Cmax Mean
test_readout: Cmax
Please report the result as a number followed by the unit.

Query: What measured Cmax goes with CCCNc1nc(NCCC)nc(N(C)OC)n1 ?
Reply: 468 ng/mL

====

test: Pharmacokinetics of Compound A, plasma concentrations after IV infusion
Type: in vivo, human
condition_parameters: both sexes, human, plasma, intravenous, ENA-001 low dose, N 12; read-out: tmax Mean
test_readout: Tmax (h)
Answers are plain numbers, in h.

Query: State the recorded Tmax for this entry: CCCNc1nc(NCCC)nc(N(C)OC)n1
Reply: 4.26

====

test: Pharmacokinetics of Compound A, plasma concentrations after IV infusion
Type: in vivo, human
condition_parameters: both sexes, human, plasma, intravenous, high dose; read-out: highest individual AUCinf
test_readout: AUC(0-inf) (ng·h/mL)
One number for each entry, in ng·h/mL.

Query: Given the compound CCCNc1nc(NCCC)nc(N(C)OC)n1 , what is its reported AUC(0-inf)?
Reply: 13800

====

test: Pharmacokinetics of Compound A, plasma concentrations after IV infusion
Assay type: in vivo, human
condition_parameters: both sexes, human, plasma, intravenous, ENA-001 high dose, N 12; read-out: AUClast Mean
test_readout: AUC(0-t) (ng·h/mL)
Answers are plain numbers, in ng·h/mL.

Query: Given the compound CCCNc1nc(NCCC)nc(N(C)OC)n1 , what is its reported AUC(0-t)?
Reply: 8500

====

test: Pharmacokinetics of Compound A, plasma concentrations after IV infusion
Type: in vivo, human
condition_parameters: both sexes, human, plasma, intravenous, ENA-001 high dose, N 12; read-out: CL Mean (converted)
test_readout: clearance (mL/min)
Answers are plain numbers, in mL/min.

Query: Return reported clearance; argument: CCCNc1nc(NCCC)nc(N(C)OC)n1
Reply: 756
